Experimental target: T1, human CX3CR1 (human, UniProt P49238 1-355)
T1 construct: overexpressed on CHO, BA/F3 or HEK293T cells; also called huCX3CR1; hCX3CR1
T1 sequence: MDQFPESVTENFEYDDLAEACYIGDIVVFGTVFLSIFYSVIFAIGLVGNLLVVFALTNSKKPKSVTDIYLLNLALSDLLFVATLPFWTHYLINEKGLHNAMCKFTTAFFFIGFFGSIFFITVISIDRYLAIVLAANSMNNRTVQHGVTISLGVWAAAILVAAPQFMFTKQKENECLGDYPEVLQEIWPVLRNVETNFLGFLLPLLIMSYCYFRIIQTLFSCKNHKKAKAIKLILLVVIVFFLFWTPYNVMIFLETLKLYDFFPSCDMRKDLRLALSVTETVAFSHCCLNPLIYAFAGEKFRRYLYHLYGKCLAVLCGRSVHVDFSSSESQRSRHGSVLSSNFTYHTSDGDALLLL
Assay protocol: periplasmic extract, A647-fractalkine competition FACS, CHO-huCX3CR1
Property name: % block (%)
Field format: number, assumed %, no unit text.

CX3CR1BIIPMP54A5 (VHH, tested as periplasmic extract; not shown: C-terminal c-myc and His6 tags) VHH: EVQLVESGGGSVQAGESLRLSCAASGSIFSSNAMAWYRQAPGKQRDLVAGINSVGITKYADSVKGRFTISRDNAKNTVYLQMNSLKPEDTAVYYCTSDPRRGWDTRYWGQGTLVTVSS
92.5
CX3CR1BIIPMP61E2 (VHH, also called 61E02; not shown: C-terminal c-myc and His6 tags) VHH: EVQLVESGGGSVQAGESLRLSCAASGSIFSSNAMAWYRQAPGKQRDLVAGINSVGITKYADSVKGRFTISRDNAKNTVYLQMNSLKPEDMAVYYCTSDPRRGWDTRYWGQGTQVTVSS
70.3
CX3CR1BIIPMP54D8 (VHH, also called 54D08; CX3CR1BII54D08; not shown: C-terminal c-myc and His6 tags) VHH: EVQLVESGGGSVQAGGSLRLSCAASGSIFSSNAMAWYRQAPGKQRDLVAGINSVGITKYADSVKGRFTISRDNAKNTVYLQMNSLKPEDTAVYYCTSDPRRGWDTRYWGQGTLVTVSS
64.1

Q) Quick check: % block of CX3CR1BIIPMP54H4 (VHH, tested as periplasmic extract; not shown: C-terminal c-myc and His6 tags) VHH: EVQLVESGGGSVQAGESLRLSCAASGSIFSSNAMAWYRQAPGKQRDLVAVINSVGITKYADSVKGRFTISGDNAKNTVYLQMNSLKPEDTAVYYCTSDARRGWDTRYWGQGTLVTVSS ?
A) 96
